target: trypsin, type IX from porcine pancreas (Sus scrofa, UniProt P00761); construct: purchased Sigma, St Louis Mo. type IX; host or cells: porcine pancreas; assay: Trypsin Assay; format: biochemical; conditions: L-BAPNA substrate, 60 min, room temperature, pH 8.0; read-out: Trpysin II ICSO
Sequence (P00761 9-231): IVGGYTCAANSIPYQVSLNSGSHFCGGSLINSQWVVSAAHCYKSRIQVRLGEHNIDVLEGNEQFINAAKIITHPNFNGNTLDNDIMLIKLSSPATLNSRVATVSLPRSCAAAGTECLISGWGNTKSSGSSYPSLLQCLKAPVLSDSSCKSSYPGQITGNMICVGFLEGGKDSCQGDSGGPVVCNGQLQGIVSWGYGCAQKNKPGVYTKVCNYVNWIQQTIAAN
pIC50: −log10 of the molar value.
pIC50: recorded values

Worked cases, pIC50 given:
NCc1ccc(CNC(=O)Cn2c(=O)c(NS(=O)(=O)Cc3ccccc3)cc3ccccc32)cc1 [Example 10]; < 4.52
O=C(Cn1c(=O)c(NS(=O)(=O)Cc2ccccc2)cc2ccccc21)NCCc1cccnc1 [Example 14]; < 4.52
NCCCCCNC(=O)Cn1c(=O)c(NS(=O)(=O)Cc2ccccc2)cc2ccccc21 [Example 8]; < 4.52
Cc1ccc(NS(=O)(=O)Cc2ccccc2)c(=O)n1CC(=O)NCc1ccc(C(=N)N)cc1 [Example 20]; 6.30
O=C(Cn1c(=O)c(NS(=O)(=O)Cc2ccccc2)cc2ccccc21)NCCCn1ccnc1 [Example 12]; < 4.52
Nc1ccc(CCNC(=O)Cn2c(=O)c(NS(=O)(=O)Cc3ccccc3)cc3ccccc32)cc1 [Example 6]; < 4.52

Request: Looking for the measured pIC50 of N=C(N)c1ccc(CNC(=O)Cn2c(=O)c(NCCc3ccccc3)cc3ccccc32)cc1 [Example 3] , can you help?
Response: 6.07

Request: Looking for the measured pIC50 of N=C(N)c1ccc(CNC(=O)Cn2c(=O)c(NS(=O)(=O)c3ccccc3)cc3ccccc32)cc1 [Example 4] , can you help?
Response: 6.32
